Tested on: affinity purified β2GPI-dependent antiphospholipid antibody
Assay: Competitive inhibition ELISA: recombinant β2GPI proteins compete for antibody binding to coated full length recombinant β2GPI
Set-up: species or system human
Conditions: Ab 6641
Each item that follows carries a reported Max (maximum inhibition observed at concentrations tested).
// return numeric value only (unit: %, not printed)

Any idea what Max (maximum inhibition observed at concentrations tested) was measured for 1234-: recombinant β2GPI deletion mutant with domains 1, 2, 3, 4 (protein) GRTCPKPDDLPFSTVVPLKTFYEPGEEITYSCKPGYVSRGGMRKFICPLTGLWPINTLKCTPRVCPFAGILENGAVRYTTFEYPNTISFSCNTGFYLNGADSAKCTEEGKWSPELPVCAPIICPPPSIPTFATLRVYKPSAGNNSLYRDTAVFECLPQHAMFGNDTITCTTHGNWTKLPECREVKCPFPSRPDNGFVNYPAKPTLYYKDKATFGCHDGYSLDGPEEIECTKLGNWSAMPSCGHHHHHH ?
60

Also, --345: recombinant β2GPI deletion mutant with domains 3, 4, 5 (protein) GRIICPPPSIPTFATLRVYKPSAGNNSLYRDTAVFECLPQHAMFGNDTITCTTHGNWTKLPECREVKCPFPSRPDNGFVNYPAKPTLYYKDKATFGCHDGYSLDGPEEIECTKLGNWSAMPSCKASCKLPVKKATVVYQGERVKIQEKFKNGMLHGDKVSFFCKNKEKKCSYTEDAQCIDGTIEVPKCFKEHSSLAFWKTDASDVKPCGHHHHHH please.
10

Also, 1----: recombinant β2GPI protein with domain 1 only (SEQ ID NO:4 region), His6 tail (protein) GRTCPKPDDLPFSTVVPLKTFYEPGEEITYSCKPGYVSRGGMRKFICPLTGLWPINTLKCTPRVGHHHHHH please.
98
